Recorded measurements of PBM binding z-score, one per entry
- Test system: PPARg homodimer (NR concentration 180 nM)
- ASSAY: PBM binding z-score (relative to random genomic background probes); higher = stronger binding; sequences stand for … in GC…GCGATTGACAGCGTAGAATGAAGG
Lab note: jot the number down without any unit.

Solved cases (5 shown):
{"PRIMARY SEQUENCE": "TCGAGTAGGCTACGGGGGCATTCAGGGATGAAGA", "REPORTED MEASUREMENT": 0.299}
{"PRIMARY SEQUENCE": "ATATGTAGGTTACATCCGAGTCATTCAGGCTATG", "REPORTED MEASUREMENT": 0.982}
{"PRIMARY SEQUENCE": "CCGAGTAGGGTACGAGGGGGCATTCAGTGCGAAT", "REPORTED MEASUREMENT": 0.861}
{"PRIMARY SEQUENCE": "TAGCCTAGGTCAAGCGGGCCAGTATAGTGTCGGC", "REPORTED MEASUREMENT": 0.96}
{"PRIMARY SEQUENCE": "CCTTACCGGTCAAGGTTATAGCACGGGTGGTACG", "REPORTED MEASUREMENT": 1.58}

The sequence identified as AATACAGGGACATCGTAGGCCAGAGTACGCACAG registered its PBM binding z-score at -0.207

The sequence identified as CCTAGTTGGTCAGGAGGCCACACACCGGATATGA registered its PBM binding z-score at 0.805

The sequence identified as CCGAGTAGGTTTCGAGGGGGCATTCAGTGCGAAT registered its PBM binding z-score at 1.58
